The measured values listed here are drawn from the supplement of paper PMC4862054.

# Test system: MDA-MB-468
# ASSAY COMMENT: drug sensitivity score (DSS), CellTox Green (DSS (AUC-based score)); higher = stronger drug effect (viability inhibition or cytotoxicity); extreme values may be limits of the assay
# STUDY CONDITIONS: incubation time: 72 h
Here the recorded drug sensitivity score is given for each entry.
Could you keep your reply to the number by itself?

**Query** Tell me the measured drug sensitivity score of `CC(C)c1c(C(=O)Nc2ccccc2)c(-c2ccccc2)c(-c2ccc(F)cc2)n1CC[C@@H](O)C[C@@H](O)CC(=O)O` , please.
**Result** 0

**Query** Tell me the measured drug sensitivity score of `Nc1ncnc2c1c(COc1cccc(Cl)c1)nn2C1CCOCC1` , please.
**Result** 0

**Query** Tell me the measured drug sensitivity score of `CNNCc1ccc(C(=O)NC(C)C)cc1` , please.
**Result** 3.72

**Query** Tell me the measured drug sensitivity score of `Nc1nc(OCc2cc(Br)cs2)c2[nH]cnc2n1` , please.
**Result** 0

**Query** Tell me the measured drug sensitivity score of `c1ccc([C@H]2CN3CCSC3=N2)cc1` , please.
**Result** 0

Now look at this one.
**Query** Tell me the measured drug sensitivity score of `C[C@]12CC[C@H](O)CC1=CC[C@@H]1[C@@H]2CC[C@]2(C)C(c3cccnc3)=CC[C@@H]12` , please.
**Result** 0

---

# Tested on: MDA-MB-436
# STUDY CONDITIONS: 72 h
Here the recorded EC50, CellTox Green is given for each entry.
Reply numerically in µM, unit not repeated.

**Query** Tell me the measured EC50, CellTox Green of `NS(=O)(=O)OC[C@@H]1C[C@@H](n2ccc3c(N[C@H]4CCc5ccccc54)ncnc32)C[C@@H]1O` , please.
**Result** 1.51

Further cases:
**Query** Tell me the measured EC50, CellTox Green of CN(C)CCN1C(=O)c2cccc3cc(N)cc(c23)C1=O [Amonafide] , please.
**Result** 0.0444

**Query** Tell me the measured EC50, CellTox Green of `CN(C)C[C@@H]1CCn2cc(c3ccccc32)C2=C(C(=O)NC2=O)c2cn(c3ccccc23)CCO1` , please.
**Result** 1

---

# Tested on: HCC1937
# ASSAY COMMENT: drug sensitivity score (DSS), CellTox Green (DSS (AUC-based score)); higher = stronger drug effect (viability inhibition or cytotoxicity); extreme values may be limits of the assay
# STUDY CONDITIONS: incubation time: 72 h
QUANTITY NAME: drug sensitivity score
Could you keep your reply to the number by itself?

**Query** Any idea what drug sensitivity score came out for `Nc1nc(OCc2cc(Br)cs2)c2[nH]cnc2n1` on HCC1937?
**Result** 1.11

**Query** Any idea what drug sensitivity score came out for `CC(C)(C#N)c1cc(Cn2cncn2)cc(C(C)(C)C#N)c1` on HCC1937?
**Result** 0

**Query** Any idea what drug sensitivity score came out for `COc1ccccc1S(=O)(=O)Nc1ccc2c(c1)CN(C)C(=O)N2` on HCC1937?
**Result** 0

Further cases:
**Query** Any idea what drug sensitivity score came out for `CCCCCCCCc1ccc(CCC(N)(CO)CO)cc1` on HCC1937?
**Result** 17.9

**Query** Any idea what drug sensitivity score came out for `Nc1ncnc2c1c(COc1cccc(Cl)c1)nn2C1CCOCC1` on HCC1937?
**Result** 0

**Query** Any idea what drug sensitivity score came out for `Cc1ccc(NC(=O)c2ccc(CN3CCN(C)CC3)cc2)cc1Nc1nccc(-c2cccnc2)n1` on HCC1937?
**Result** 0

**Query** Any idea what drug sensitivity score came out for O=C1NC(=O)[C@@H](c2cn3c4c(cccc24)CCC3)[C@@H]1c1c[nH]c2ccccc12 [Tivantinib] on HCC1937?
**Result** 0

**Query** Any idea what drug sensitivity score came out for `Cn1cncc1[C@@](N)(c1ccc(Cl)cc1)c1ccc2c(c1)c(-c1cccc(Cl)c1)cc(=O)n2C` on HCC1937?
**Result** 0

---

Here the recorded drug sensitivity score is given for each entry.
# Test system: CAL-51
# ASSAY COMMENT: drug sensitivity score (DSS), CellTiter-Glo (DSS (AUC-based score)); higher = stronger drug effect (viability inhibition or cytotoxicity); extreme values may be limits of the assay
# STUDY CONDITIONS: incubation time: 72 h
Could you keep your reply to the number by itself?

Below, 4 molecules whose answers are already recorded.
**Query** Any idea what drug sensitivity score came out for Nc1nc(OCc2cc(Br)cs2)c2[nH]cnc2n1 [Lomeguatrib] on CAL-51?
**Result** 0

**Query** Any idea what drug sensitivity score came out for CN1CCN(CCOc2cc(OC3CCOCC3)c3c(Nc4c(Cl)ccc5c4OCO5)ncnc3c2)CC1 [Saracatinib] on CAL-51?
**Result** 5.08

**Query** Any idea what drug sensitivity score came out for O=C(O)CCCc1ccc(N(CCCl)CCCl)cc1 [Chlorambucil] on CAL-51?
**Result** 0

**Query** Any idea what drug sensitivity score came out for CO[C@H]1C[C@@H]2CC[C@@H](C)[C@@](O)(O2)C(=O)C(=O)N2CCCC[C@H]2C(=O)O[C@H]([C@H](C)C[C@@H]2CC[C@@H](OCCO)[C@H](OC)C2)CC(=O)[C@H](C)/C=C(\C)[C@@H](O)[C@@H](OC)C(=O)[C@H](C)C[C@H](C)/C=C/C=C/C=C/1C [Everolimus] on CAL-51?
**Result** 9.8

Now look at this one.
**Query** Any idea what drug sensitivity score came out for NS(=O)(=O)OC[C@@H]1C[C@@H](n2ccc3c(N[C@H]4CCc5ccccc54)ncnc32)C[C@@H]1O [Pevonedistat] on CAL-51?
**Result** 22.8

---

# System: MDA-MB-436
# ASSAY COMMENT: normalised response (% of control), CellTox Green; higher = less cell death (100 = DMSO, 0 = benzethonium chloride kill control)
# STUDY CONDITIONS: incubation time: 72 h
Here the recorded normalised response is given for each entry.
Reply numerically in %, unit not repeated.

Below, 3 molecules whose answers are already recorded.
**Query** Tell me the measured normalised response of COc1ccccc1S(=O)(=O)Nc1ccc2c(c1)CN(C)C(=O)N2 [PFI-1] (10000 nM) , please.
**Result** 101

**Query** Tell me the measured normalised response of CNNCc1ccc(C(=O)NC(C)C)cc1 [Procarbazine] (1000 nM) , please.
**Result** 98

**Query** Tell me the measured normalised response of Cn1c(=O)n(-c2ccc(C(C)(C)C#N)cc2)c2c3cc(-c4cnc5ccccc5c4)ccc3ncc21 [Dactolisib] (10 nM) , please.
**Result** 102

Now look at this one.
**Query** Tell me the measured normalised response of NS(=O)(=O)OC[C@@H]1C[C@@H](n2ccc3c(N[C@H]4CCc5ccccc54)ncnc32)C[C@@H]1O [Pevonedistat] (1000 nM) , please.
**Result** 80.8

---

# System: Hs578T
# ASSAY COMMENT: drug sensitivity score (DSS), CellTiter-Glo (DSS (AUC-based score)); higher = stronger drug effect (viability inhibition or cytotoxicity); extreme values may be limits of the assay
# STUDY CONDITIONS: incubation time: 72 h
QUANTITY NAME: drug sensitivity score
Could you keep your reply to the number by itself?

Below, 4 compounds whose answers are already recorded.
**Query** Tell me the measured drug sensitivity score of `Nc1ncnc2c1c(COc1cccc(Cl)c1)nn2C1CCOCC1` , please.
**Result** 0

**Query** Tell me the measured drug sensitivity score of C/C(=C\c1csc(C)n1)[C@@H]1C[C@@H]2O[C@]2(C)CCC[C@H](C)[C@H](O)[C@@H](C)C(=O)C(C)(C)[C@@H](O)CC(=O)O1 [Patupilone] , please.
**Result** 12.7

**Query** Tell me the measured drug sensitivity score of CNNCc1ccc(C(=O)NC(C)C)cc1 [Procarbazine] , please.
**Result** 0

**Query** Tell me the measured drug sensitivity score of O=C(O)CCCc1ccc(N(CCCl)CCCl)cc1 [Chlorambucil] , please.
**Result** 0

Now look at this one.
**Query** Tell me the measured drug sensitivity score of Nc1nc(OCc2cc(Br)cs2)c2[nH]cnc2n1 [Lomeguatrib] , please.
**Result** 0

---

# Test system: BT-474
# ASSAY COMMENT: normalised response (% of control), CellTiter-Glo; higher = more viable cells (100 = DMSO, 0 = benzethonium chloride kill control)
# STUDY CONDITIONS: incubation time: 72 h
QUANTITY NAME: normalised response (%)
Reply numerically in %, unit not repeated.

Below, 2 molecules whose answers are already recorded.
**Query** Tell me the measured normalised response of CNNCc1ccc(C(=O)NC(C)C)cc1 [Procarbazine] (1 nM) , please.
**Result** 102

**Query** Tell me the measured normalised response of CC[C@]1(O)C[C@H]2CN(CCc3c([nH]c4ccccc34)[C@@](C(=O)OC)(c3cc4c(cc3OC)N(C=O)[C@H]3[C@@](O)(C(=O)OC)[C@H](OC(C)=O)[C@]5(CC)C=CCN6CC[C@]43[C@@H]65)C2)C1 [Vincristine] (1 nM) , please.
**Result** 100

Further cases:
**Query** Tell me the measured normalised response of COc1ccccc1S(=O)(=O)Nc1ccc2c(c1)CN(C)C(=O)N2 [PFI-1] (1000 nM) , please.
**Result** 89.8

**Query** Tell me the measured normalised response of CC(C)(C#N)c1cc(Cn2cncn2)cc(C(C)(C)C#N)c1 [Anastrozole] (10 nM) , please.
**Result** 101

**Query** Tell me the measured normalised response of Nc1ncnc2c1c(COc1cccc(Cl)c1)nn2C1CCOCC1 (1000 nM) , please.
**Result** 104

**Query** Tell me the measured normalised response of Nc1ncnc2c1c(COc1cccc(Cl)c1)nn2C1CCOCC1 (1 nM) , please.
**Result** 102
